system: NCI-H647; assay: relative viability (nuclei count vs DMSO), 5 days (fraction); higher = more cells survive; conditions: first compound 500 µM
readout type: relative viability

O=C(O)CCCCC(CCSCc1ccccc1)SCc1ccccc1 (centres undefined) [CPI-613] + Nc1nc2[nH]cc(CCc3ccc(C(=O)N[C@@H](CCC(=O)O)C(=O)O)cc3)c2c(=O)[nH]1 [Pemetrexed] (partner 0.2 µM); 0.0167
O=C(O)CCCCC(CCSCc1ccccc1)SCc1ccccc1 (centres undefined) [CPI-613] + CC(=O)Nc1cccc(-n2c(=O)n(C3CC3)c(=O)c3c(Nc4ccc(I)cc4F)n(C)c(=O)c(C)c32)c1 [Trametinib] (partner 0.02 µM); 0.0504
O=C(O)CCCCC(CCSCc1ccccc1)SCc1ccccc1 (centres undefined) [CPI-613] + Cc1nc(Nc2ncc(C(=O)Nc3c(C)cccc3Cl)s2)cc(N2CCN(CCO)CC2)n1 [Dasatinib] (partner 0.075 µM); 0.0112

Please examine the following record next.
Input line: Field: relative viability (NCI-H647). Entry: O=C(O)CCCCC(CCSCc1ccccc1)SCc1ccccc1 (centres undefined) [CPI-613] + CC1(C)CCC(c2ccc(Cl)cc2)=C(CN2CCN(c3ccc(C(=O)NS(=O)(=O)c4ccc(N[C@H](CCN5CCOCC5)CSc5ccccc5)c(S(=O)(=O)C(F)(F)F)c4)cc3)CC2)C1 [Navitoclax] (partner 0.5 µM)
Output line: 0.238

###

test system: NCI-H2170; assay: relative viability (nuclei count vs DMSO), 5 days (fraction); higher = more cells survive; conditions: first compound 0.005 µM
Labelling: relative viability reported below 0.7 becomes 1.0; at or above becomes 0.0.

Nc1ccn([C@@H]2O[C@H](CO)[C@@H](O)[C@@H]2O)c(=O)n1 [Cytarabine] + Cc1cc(Nc2cc(N3CCN(C)CC3)nc(Sc3ccc(NC(=O)C4CC4)cc3)n2)n[nH]1 [Tozasertib] (partner 0.1 µM); 1.0
COc1cc2nccc(Oc3ccc(NC(=O)Nc4cc(C)on4)c(Cl)c3)c2cc1OC [Tivozanib] + CS(=O)(=O)CCNCc1ccc(-c2ccc3ncnc(Nc4ccc(OCc5cccc(F)c5)c(Cl)c4)c3c2)o1 [Lapatinib] (partner 2 µM); 1.0
Nc1ccn([C@@H]2O[C@H](CO)[C@@H](O)[C@@H]2O)c(=O)n1 [Cytarabine] + COc1cc2c(Oc3ccc(NC(=O)C4(C(=O)Nc5ccc(F)cc5)CC4)cc3F)ccnc2cc1OCCCN1CCOCC1 [Foretinib] (partner 0.25 µM); 0.0
COc1cc2nccc(Oc3ccc(NC(=O)Nc4cc(C)on4)c(Cl)c3)c2cc1OC [Tivozanib] + O=C(CCCCCCC(=O)Nc1ccccc1)NO [Vorinostat] (partner 1 µM); 0.0

Input line: # strict comparison: is reported relative viability < 0.7? input = COc1cc2nccc(Oc3ccc(NC(=O)Nc4cc(C)on4)c(Cl)c3)c2cc1OC [Tivozanib] + Nc1ncn([C@H]2C[C@H](O)[C@@H](CO)O2)c(=O)n1 [Decitabine] (partner 2 µM)
Output line: 1.0

Input line: # strict comparison: is reported relative viability < 0.7? input = Nc1ccn([C@@H]2O[C@H](CO)[C@@H](O)[C@@H]2O)c(=O)n1 [Cytarabine] + CCNC(=O)c1noc(-c2cc(C(C)C)c(O)cc2O)c1-c1ccc(CN2CCOCC2)cc1 [Luminespib] (partner 0.01 µM)
Output line: 0.0

Input line: # strict comparison: is reported relative viability < 0.7? input = COc1cc2nccc(Oc3ccc(NC(=O)Nc4cc(C)on4)c(Cl)c3)c2cc1OC [Tivozanib] + CC1(C)CCC(c2ccc(Cl)cc2)=C(CN2CCN(c3ccc(C(=O)NS(=O)(=O)c4ccc(N[C@H](CCN5CCOCC5)CSc5ccccc5)c(S(=O)(=O)C(F)(F)F)c4)cc3)CC2)C1 [Navitoclax] (partner 0.5 µM)
Output line: 1.0

Input line: # strict comparison: is reported relative viability < 0.7? input = COc1cc2nccc(Oc3ccc(NC(=O)Nc4cc(C)on4)c(Cl)c3)c2cc1OC [Tivozanib] + COc1cc2c(Oc3ccc(NC(=O)C4(C(=O)Nc5ccc(F)cc5)CC4)cc3F)ccnc2cc1OCCCN1CCOCC1 [Foretinib] (partner 0.25 µM)
Output line: 0.0

###

tested on: NCI-H2085; experiment: relative viability (nuclei count vs DMSO), 5 days (fraction); higher = more cells survive; conditions: first compound 0.000632 µM
Each item that follows carries a reported relative viability.
Please give the numeric answer without any surrounding text.

CC(=O)O[C@@]12CO[C@@H]1C[C@H](O)[C@@]1(C)C(=O)[C@H](O)C3=C(C)[C@@H](OC(=O)[C@H](O)[C@@H](NC(=O)OC(C)(C)C)c4ccccc4)C[C@@](O)([C@@H](OC(=O)c4ccccc4)[C@H]21)C3(C)C [Docetaxel] + COc1cccc2cc(-c3nc([C@H]4CC[C@H](C(=O)O)CC4)n4ncnc(N)c34)[nH]c12 [OSI-027] (partner 0.5 µM); 0.706
CC(=O)O[C@@]12CO[C@@H]1C[C@H](O)[C@@]1(C)C(=O)[C@H](O)C3=C(C)[C@@H](OC(=O)[C@H](O)[C@@H](NC(=O)OC(C)(C)C)c4ccccc4)C[C@@](O)([C@@H](OC(=O)c4ccccc4)[C@H]21)C3(C)C [Docetaxel] + CC(=O)Nc1cccc(-n2c(=O)n(C3CC3)c(=O)c3c(Nc4ccc(I)cc4F)n(C)c(=O)c(C)c32)c1 [Trametinib] (partner 0.02 µM); 0.513

Please examine the following record next.
Input line: For CC(=O)O[C@@]12CO[C@@H]1C[C@H](O)[C@@]1(C)C(=O)[C@H](O)C3=C(C)[C@@H](OC(=O)[C@H](O)[C@@H](NC(=O)OC(C)(C)C)c4ccccc4)C[C@@](O)([C@@H](OC(=O)c4ccccc4)[C@H]21)C3(C)C [Docetaxel] + O=C(c1cc(Cc2n[nH]c(=O)c3ccccc23)ccc1F)N1CCN(C(=O)C2CC2)CC1 [Olaparib] (partner 8 µM) , what is its reported relative viability?
Output line: 0.826

###

system: PC-3 [JPC-3]; assay: relative viability (nuclei count vs DMSO), 5 days (fraction); higher = more cells survive; settings: first compound 0.02 µM
Each item that follows carries a reported relative viability.
Please give the numeric answer without any surrounding text.

Example results:
CC(=O)O[C@@]12CO[C@@H]1C[C@H](O)[C@@]1(C)C(=O)[C@H](O)C3=C(C)[C@@H](OC(=O)[C@H](O)[C@@H](NC(=O)OC(C)(C)C)c4ccccc4)C[C@@](O)([C@@H](OC(=O)c4ccccc4)[C@H]21)C3(C)C [Docetaxel] + O=C(CCCCCCC(=O)Nc1ccccc1)NO [Vorinostat] (partner 1 µM); 0.21
CC(=O)O[C@@]12CO[C@@H]1C[C@H](O)[C@@]1(C)C(=O)[C@H](O)C3=C(C)[C@@H](OC(=O)[C@H](O)[C@@H](NC(=O)OC(C)(C)C)c4ccccc4)C[C@@](O)([C@@H](OC(=O)c4ccccc4)[C@H]21)C3(C)C [Docetaxel] + Cc1nc(Nc2ncc(C(=O)Nc3c(C)cccc3Cl)s2)cc(N2CCN(CCO)CC2)n1 [Dasatinib] (partner 0.075 µM); 0.16

Please examine the following record next.
Input line: For CC(=O)O[C@@]12CO[C@@H]1C[C@H](O)[C@@]1(C)C(=O)[C@H](O)C3=C(C)[C@@H](OC(=O)[C@H](O)[C@@H](NC(=O)OC(C)(C)C)c4ccccc4)C[C@@](O)([C@@H](OC(=O)c4ccccc4)[C@H]21)C3(C)C [Docetaxel] + CS(=O)(=O)CCNCc1ccc(-c2ccc3ncnc(Nc4ccc(OCc5cccc(F)c5)c(Cl)c4)c3c2)o1 [Lapatinib] (partner 2 µM) , what is its reported relative viability?
Output line: 0.197

###

system: NCI-H1395; assay: relative viability (nuclei count vs DMSO), 5 days (fraction); higher = more cells survive; details: first compound 0.253 µM
readout type: relative viability
Please give the numeric answer without any surrounding text.

Cc1cnc(-c2cnc(NCCNc3ccc(C#N)cn3)nc2-c2ccc(Cl)cc2Cl)[nH]1 + Cc1nc(NC(=O)N2CCC[C@H]2C(N)=O)sc1-c1ccnc(C(C)(C)C(F)(F)F)c1 [Alpelisib] (partner 2 µM); 1.03
O=c1[nH]c2ccccc2n1C1CCN(CCCC(c2ccc(F)cc2)c2ccc(F)cc2)CC1 [Pimozide] + CS(=O)(=O)N1CCN(Cc2cc3nc(-c4cccc5[nH]ncc45)nc(N4CCOCC4)c3s2)CC1 [Pictilisib] (partner 1 µM); 0.598
O=c1[nH]c2ccccc2n1C1CCN(CCCC(c2ccc(F)cc2)c2ccc(F)cc2)CC1 [Pimozide] + COc1cc2c(Oc3ccc(NC(=O)C4(C(=O)Nc5ccc(F)cc5)CC4)cc3F)ccnc2cc1OCCCN1CCOCC1 [Foretinib] (partner 0.25 µM); 0.975

Please examine the following record next.
Input line: For Cc1cnc(-c2cnc(NCCNc3ccc(C#N)cn3)nc2-c2ccc(Cl)cc2Cl)[nH]1 + CC(=O)Nc1cccc(-n2c(=O)n(C3CC3)c(=O)c3c(Nc4ccc(I)cc4F)n(C)c(=O)c(C)c32)c1 [Trametinib] (partner 0.02 µM) , what is its reported relative viability?
Output line: 0.715

Reference source for all entries: the supplement of paper PMC10307832
